- PROTOCOL SUMMARY: total protein half-life in vivo (active degradation + dilution); higher = more stable protein
- CONDITION SUMMARY: wild type E. coli NCM3722; growth: C-lim chemostat; doubling time 6 h
READOUT KIND: total protein half-life in vivo (h)
Write the answer as a number in h, unit excluded.

Quick note, total protein half-life in vivo for MKTLGEFIVEKQHEFSHATGELTALLSAIKLGAKIIHRDINKAGLVDILGASGAENVQGEVQQKLDLFANEKLKAALKARDIVAGIASEEEDEIVVFEGCEHAKYVVLMDPLDGSSNIDVNVSVGTIFSIYRRVTPVGTPVTEEDFLQPGNKQVAAGYVVYGSSTMLVYTTGCGVHAFTYDPSLGVFCLCQERMRFPEKGKTYSINEGNYIKFPNGVKKYIKFCQEEDKSTNRPYTSRYIGSLVADFHRNLLKGGIYLYPSTASHPDGKLRLLYECNPMAFLAEQAGGKASDGKERILDIIPETLHQRRSFFVGNDHMVEDVERFIREFPDA [P0A993] landed at 5.02

----------
Answer each item with its documented total protein half-life in vivo.
- PROTOCOL SUMMARY: total protein half-life in vivo (active degradation + dilution); higher = more stable protein
- CONDITION SUMMARY: E. coli NCM3722 delta-clpP delta-lon delta-hslV; growth: N-lim chemostat; doubling time 6 h
Write the answer as a number in h, unit excluded.

Quick note, total protein half-life in vivo for "MERIVVTLGERSYPITIASGLFNEPASFLPLKSGEQVMLVTNETLAPLYLDKVRGVLEQAGVNVDSVILPDGEQYKSLAVLDTVFTALLQKPHGRDTTLVALGGGVVGDLTGFAAASYQRGVRFIQVPTTLLSQVDSSVGGKTAVNHPLGKNMIGAFYQPASVVVDLDCLKTLPPRELASGLAEVIKYGIILDGAFFNWLEENLDALLRLDGPAMAYCIRRCCELKAEVVAADERETGLRALLNLGHTFGHAIEAEMGYGNWLHGEAVAAGMVMAARTSERLGQFSSAETQRIITLLKRAGLPVNGPREMSAQAYLPHMLRDKKVLAGEMRLILPLAIGKSEVRSGVSHELVLNAIADCQSA" landed at 4.67

Quick note, total protein half-life in vivo for MDFSLTEEQELLLASIRELITTNFPEEYFRTCDQNGTYPREFMRALADNGISMLGVPEEFGGIPADYVTQMLALMEVSKCGAPAFLITNGQCIHSMRRFGSAEQLRKTAESTLETGDPAYALALTEPGAGSDNNSATTTYTRKNGKVYINGQKTFITGAKEYPYMLVLARDPQPKDPKKAFTLWWVDSSKPGIKINPLHKIGWHMLSTCEVYLDNVEVEESDMVGEEGMGFLNVMYNFEMERLINAARSTGFAECAFEDAARYANQRIAFGKPIGHNQMIQEKLALMAIKIDNMRNMVLKVAWQADQHQSLRTSAALAKLYCARTAMEVIDDAIQIMGGLGYTDEARVSRFWRDVRCERIGGGTDEIMIYVAGRQILKDYQNK [P0A9U8] landed at 6.36

----------
- PROTOCOL SUMMARY: total protein half-life in vivo (active degradation + dilution); higher = more stable protein
- CONDITION SUMMARY: E. coli NCM3722 delta-smpB; growth: N-lim chemostat; doubling time 6 h
Answer each item with its documented total protein half-life in vivo.
Write the answer as a number in h, unit excluded.

Quick note, total protein half-life in vivo for MFHRLWTLIRKELQSLLREPQTRAILILPVLIQVILFPFAATLEVTNATIAIYDEDNGEHSVELTQRFARASAFTHVLLLKSPQEIRPTIDTQKALLLVRFPADFSRKLDTFQTAPLQLILDGRNSNSAQIAANYLQQIVKNYQQELLEGKPKPNNSELVVRNWYNPNLDYKWFVVPSLIAMITTIGVMIVTSLSVAREREQGTLDQLLVSPLTTWQIFIGKAVPALIVATFQATIVLAIGIWAYQIPFAGSLALFYFTMVIYGLSLVGFGLLISSLCSTQQQAFIGVFVFMMPAILLSGYVSPVENMPVWLQNLTWINPIRHFTDITKQIYLKDASLDIVWNSLWPLLVITATTGSAAYAMFRRKVM [P0AFP9] landed at 5.25

Quick note, total protein half-life in vivo for "MYPVDLHMHTVASTHAYSTLSDYIAQAKQKGIKLFAITDHGPDMEDAPHHWHFINMRIWPRVVDGVGILRGIEANIKNVDGEIDCSGKMFDSLDLIIAGFHEPVFAPHDKATNTQAMIATIASGNVHIISHPGNPKYEIDVKAVAEAAAKHQVALEINNSSFLHSRKGSEDNCREVAAAVRDAGGWVALGSDSHTAFTMGEFEECLKILDAVDFPPERILNVSPRRLLNFLESRGMAPIAEFADL" landed at 3.92

Quick note, total protein half-life in vivo for MKNKADNKKRNFLTHSEIESLLKAANTGPHAARNYCLTLLCFIHGFRASEICRLRISDIDLKAKCIYIHRLKKGFSTTHPLLNKEVQALKNWLSIRTSYPHAESEWVFLSRKGNPLSRQQFYHIISTSGGNAGLSLEIHPHMLRHSCGFALANMGIDTRLIQDYLGHRNIRHTVWYTASNAGRFYGIWDRARGRQRHAVL [P0ADH5] landed at 0.718
